# System: influenza virus A/WSN/33 (H1N1)
# protocol_notes: microbe, parasite or virus in culture
# Assay type: cell-based
# experimental_parameters: H1N1|WSN, MDCK, 72 h, read-out: Antiviral activity in CPE assay
Param threshold (40%) applies to inhibition at 12.5 µM; output MET when value >= threshold, NOT MET when value < threshold.

>>> df
                                smiles_text  class_assignment
0  O=C(NCCCO)c1ccc(Nc2ccnc3cc(C(F)(F)F)ccc23)cc1               MET
1  Cc1ccccc1N1CCN(C(=O)c2ccc(Nc3ccnc4cc(C(F)(F)F)ccc34)cc2)CC1           NOT MET
2  COc1ccccc1OCCNC(=O)c1ccc(Nc2ccnc3c(C)cccc23)cc1               MET
3  COc1ccccc1OCCNC(=O)c1ccc(Nc2ccnc3cc(C)ccc23)cc1               MET
4  O=C(NCCCN1CCOCC1)c1ccc(Nc2ccnc3cc(C(F)(F)F)ccc23)cc1               MET
5  CC(C)NC(=O)c1ccc(Nc2ccnc3cc(C(F)(F)F)ccc23)cc1               MET
6  O=C(NC1CCCCC1)c1ccc(Nc2ccnc3cc(C(F)(F)F)ccc23)cc1           NOT MET
7  COc1ccccc1OCCNC(=O)c1ccc(Nc2ccnc3ccc(C(F)(F)F)cc23)cc1           NOT MET
8  CCNC(=O)c1ccc(Nc2ccnc3cc(C(F)(F)F)ccc23)cc1               MET
9  CCOc1ccc(N2CCN(C(=O)c3ccc(Nc4ccnc5cc(C(F)(F)F)ccc45)cc3)CC2)cc1               MET
